system-name: human GRP receptor (human, UniProt P30550 1-384)
Sequence (P30550 whole entry): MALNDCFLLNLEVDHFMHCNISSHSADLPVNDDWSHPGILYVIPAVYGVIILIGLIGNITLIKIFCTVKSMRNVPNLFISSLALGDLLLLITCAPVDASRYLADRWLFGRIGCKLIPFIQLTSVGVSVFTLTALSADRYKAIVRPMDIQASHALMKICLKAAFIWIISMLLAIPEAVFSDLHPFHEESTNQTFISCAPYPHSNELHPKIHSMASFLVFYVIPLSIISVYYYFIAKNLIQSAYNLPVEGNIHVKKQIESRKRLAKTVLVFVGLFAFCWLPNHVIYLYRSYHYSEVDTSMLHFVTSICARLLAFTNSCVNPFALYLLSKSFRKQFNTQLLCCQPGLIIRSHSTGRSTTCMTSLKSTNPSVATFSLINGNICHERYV
test-summary: cell-based or functional assay
Starred links: 1 amine or outer side, 2 acyl side, 3 side chain; linkers in the order of their positions; H or OH if unused. Non-standard residues stand in square brackets, D forms with d. *: point of attachment. C20 diacid = O=C(O)CCCCCCCCCCCCCCCCCCC(=O)*; C18 diacid = O=C(O)CCCCCCCCCCCCCCCCC(=O)*; γGlu = O=C(O)[C@H](CCC(=O)[*:2])N[*:1]; 2Nal = N[C@@H](Cc1ccc2ccccc2c1)C(=O)O; Palmitoyl = CCCCCCCCCCCCCCCC(=O)*; Nle = CCCC[C@H](N)C(=O)O; AEEA = NCCOCCOCC(=O)O; βAla = NCCC(=O)O
measured-metric: hIP1 GRPR EC50

Look over these answered cases.
>  <binder>
{C18 diacid}-[γGlu][AEEA][AEEA]GNHWAV[dA][dH]L[Nle]-NH2 (SMILES CCCC[C@H](NC(=O)[C@H](CC(C)C)NC(=O)[C@@H](Cc1c[nH]cn1)NC(=O)[C@@H](C)NC(=O)[C@@H](NC(=O)[C@H](C)NC(=O)[C@H](Cc1c[nH]c2ccccc12)NC(=O)[C@H](Cc1c[nH]cn1)NC(=O)[C@H](CC(N)=O)NC(=O)CNC(=O)COCCOCCNC(=O)COCCOCCNC(=O)CC[C@H](NC(=O)CCCCCCCCCCCCCCCCC(=O)O)C(=O)O)C(C)C)C(N)=O) [Peptide 159]

>  <hIP1 GRPR EC50>
101 nM

$$$$
>  <binder>
Palmitoyl-[γGlu][AEEA][AEEA]GRHWAV[dA]HL[Nle]-NH2 (SMILES CCCCCCCCCCCCCCCC(=O)N[C@@H](CCC(=O)NCCOCCOCC(=O)NCCOCCOCC(=O)NCC(=O)N[C@@H](CCCNC(=N)N)C(=O)N[C@@H](Cc1c[nH]cn1)C(=O)N[C@@H](Cc1c[nH]c2ccccc12)C(=O)N[C@@H](C)C(=O)N[C@H](C(=O)N[C@H](C)C(=O)N[C@@H](Cc1c[nH]cn1)C(=O)N[C@@H](CC(C)C)C(=O)N[C@@H](CCCC)C(N)=O)C(C)C)C(=O)O) [Peptide 89]

>  <hIP1 GRPR EC50>
1.57 nM

$$$$
>  <binder>
{C20 diacid}-[γGlu][AEEA][AEEA]PQHWAV[βAla]HL[Nle]-NH2 (SMILES CCCC[C@H](NC(=O)[C@H](CC(C)C)NC(=O)[C@H](Cc1c[nH]cn1)NC(=O)CCNC(=O)[C@@H](NC(=O)[C@H](C)NC(=O)[C@H](Cc1c[nH]c2ccccc12)NC(=O)[C@H](Cc1c[nH]cn1)NC(=O)[C@H](CCC(N)=O)NC(=O)[C@@H]1CCCN1C(=O)COCCOCCNC(=O)COCCOCCNC(=O)CC[C@H](NC(=O)CCCCCCCCCCCCCCCCCCC(=O)O)C(=O)O)C(C)C)C(N)=O) [Peptide 268]

>  <hIP1 GRPR EC50>
4.3 nM

$$$$

Identify hIP1 GRPR EC50 associated with the binder {C18 diacid}-[γGlu][AEEA][AEEA][AEEA][AEEA]GNHWAV[dA]HL[Nle]-NH2 (SMILES CCCC[C@H](NC(=O)[C@H](CC(C)C)NC(=O)[C@H](Cc1c[nH]cn1)NC(=O)[C@@H](C)NC(=O)[C@@H](NC(=O)[C@H](C)NC(=O)[C@H](Cc1c[nH]c2ccccc12)NC(=O)[C@H](Cc1c[nH]cn1)NC(=O)[C@H](CC(N)=O)NC(=O)CNC(=O)COCCOCCNC(=O)COCCOCCNC(=O)COCCOCCNC(=O)COCCOCCNC(=O)CC[C@H](NC(=O)CCCCCCCCCCCCCCCCC(=O)O)C(=O)O)C(C)C)C(N)=O) [Peptide 98]
11.2 nM

Please report hIP1 GRPR EC50 for the following binder: Palmitoyl-[γGlu][AEEA][AEEA]GNH[2Nal]AVAHL[Nle]-NH2 (SMILES CCCCCCCCCCCCCCCC(=O)N[C@@H](CCC(=O)NCCOCCOCC(=O)NCCOCCOCC(=O)NCC(=O)N[C@@H](CC(N)=O)C(=O)N[C@@H](Cc1c[nH]cn1)C(=O)N[C@@H](Cc1ccc2ccccc2c1)C(=O)N[C@@H](C)C(=O)N[C@H](C(=O)N[C@@H](C)C(=O)N[C@@H](Cc1c[nH]cn1)C(=O)N[C@@H](CC(C)C)C(=O)N[C@@H](CCCC)C(N)=O)C(C)C)C(=O)O) [Peptide 93]
6.95 nM

Taken from patent US20260176319A1.
